Where these numbers come from: ChEMBL document CHEMBL1153532

# assayProcedure: in vivo
# studyConditions: Sprague-Dawley, rat, brain/plasma, po, 10 mg/kg
The following molecules are listed with their measured Kp at 0.5 h values.
reportedMetric: Kp at 0.5 h

smilesRecord | numericResult
CCNS(=O)(=O)c1ccc(-c2ccc(CCN3CCC[C@H]3C)cc2)cc1 | 2.3
C[C@@H]1CCCN1CCc1ccc(-c2ccc(S(=O)(=O)NC3CCOCC3)cc2)cc1 | 0.32
COCCNS(=O)(=O)c1ccc(-c2ccc(CCN3CCC[C@H]3C)cc2)cc1 | 0.78

====

# assayProcedure: Half life in Sprague-Dawley rat at 10 mg/kg, po up to 21 hrs
# Format: ADME, organism-based
# Set-up: dose 10 mg/kg, route oral
# studyConditions: in vivo
reportedMetric: half-life (h)

smilesRecord | numericResult
C[C@@H]1CCCN1CCc1ccc(-c2ccc(S(=O)(=O)NC3CCOCC3)cc2)cc1 | 2.3
CCNS(=O)(=O)c1ccc(-c2ccc(CCN3CCC[C@H]3C)cc2)cc1 | 1.8
C[C@@H]1CCCN1CCc1ccc(-c2ccc(S(=O)(=O)N3CCOCC3)cc2)cc1 | 1.2
COCCNS(=O)(=O)c1ccc(-c2ccc(CCN3CCC[C@H]3C)cc2)cc1 | 2.6
